- System: 292921-168-R-J2-PDC complex spheroid viability
- PROTOCOL_TEXT: Anticancer human tumor 292921-168-R-J2-PDC patient-derived pancreatic carcinoma cell line growth inhibition; active = viability on the fitted dose curve at most 10% of control; inactive = the rest
- MEASUREMENT_SETUP: second compound 3.16 µM; first compound 0.003 µM
The reply should be one of these categories: YES = active, NO = inactive

Answered cases to consult:
Nc1ncn(C2CC(O)C(CO)S2)c(=O)n1 (stereo unspecified) + NC1CCC(NC2CC2c2ccccc2)CC1
NO
CCc1c2c(nc3ccc(O)cc13)-c1cc3c(c(=O)n1C2)COC(=O)[C@]3(O)CC + NC1CC1c1ccc(-c2cccc(O)c2)cc1
YES
Nc1ccn(C2OC(CO)C(O)C2(F)F)c(=O)n1 (stereo unspecified) + NC1CCC(NC2CC2c2ccccc2)CC1
NO
CCc1c2c(nc3ccc(O)cc13)-c1cc3c(c(=O)n1C2)COC(=O)[C@]3(O)CC + NC1CCC(NC2CC2c2ccccc2)CC1
YES
Nc1ncn(C2CC(O)C(CO)S2)c(=O)n1 (stereo unspecified) + NC1CC1c1ccc(-c2cccc(O)c2)cc1
NO

## Task I'd appreciate the recorded outcome for Nc1ccn(C2OC(CO)C(O)C2(F)F)c(=O)n1 (stereo unspecified) + NC1CC1c1ccc(-c2cccc(O)c2)cc1 from this test.
## Result YES

###

- System: 292921-168-R-J2-PDC complex spheroid viability
- PROTOCOL_TEXT: Anticancer human tumor 292921-168-R-J2-PDC cell line growth inhibition; active = viability on the fitted dose curve at most 10% of control; inactive = the rest;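 also: seven day compound exposure before luminescent viability read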
- MEASUREMENT_SETUP: second compound 3.16 µM; first compound 0.1 µM
Form entry, call: pick from y = active, n = inactive

Worked examples, 5 molecules total:
CC1COCCN1c1cc(C2(S(C)(=N)=O)CC2)nc(-c2ccnc3[nH]ccc23)n1 (centres undefined) + NC1CC1c1ccc(-c2cccc(O)c2)cc1
n
Nc1ncn(C2CC(O)C(CO)O2)c(=O)n1 (centres undefined) + NC1CCC(NC2CC2c2ccccc2)CC1
n
COc1ccc([C@@H](O)c2cc(-c3ncnc4cc(N5CCOCC5)ccc34)c(F)cc2Cl)nn1 + NC1CCC(NC2CC2c2ccccc2)CC1
n
CC(C)c1c(-c2ccccc2)nc2c(C#N)c[nH]n2c1=O + NC1CCC(NC2CC2c2ccccc2)CC1
n
COc1cc(Nc2ncc3c(n2)-c2ccc(Cl)cc2C(c2c(F)cccc2OC)=NC3)ccc1C(=O)O + NC1CCC(NC2CC2c2ccccc2)CC1
n

## Task Can you look up the reported call for O=C(c1cc(Cc2n[nH]c(=O)c3ccccc23)ccc1F)N1CCN(C(=O)C2CC2)CC1 + NC1CCC(NC2CC2c2ccccc2)CC1 for me?
## Result n

## Task Per the records of this test, what outcome belongs to CC(C)CC(NC(=O)C(Cc1ccccc1)NC(=O)c1cnccn1)B(O)O (centres undefined) + NC1CCC(NC2CC2c2ccccc2)CC1 ?
## Result y

## Task Record lookup: outcome of this test for O=C(c1cc(Cc2n[nH]c(=O)c3ccccc23)ccc1F)N1CCN(C(=O)C2CC2)CC1 + NC1CC1c1ccc(-c2cccc(O)c2)cc1 ?
## Result n

## Task Recorded test call requested for CC1COCCN1c1cc(-c2ccnn2C)c2ccnc(-c3ccn[nH]3)c2n1 (centres undefined) + NC1CCC(NC2CC2c2ccccc2)CC1
## Result n

## Task Which outcome did this test record for the molecule Cn1ncnc1C1c2n[nH]c(=O)c3cc(F)cc(c23)NC1c1ccc(F)cc1 (centres undefined) + NC1CCC(NC2CC2c2ccccc2)CC1 ?
## Result n

## Task Hello, I am checking results. What call was entered for CC(C)CC(NC(=O)CNC(=O)c1cc(Cl)ccc1Cl)B1OC(=O)CC(CC(=O)O)(C(=O)O)O1 (centres undefined) + NC1CC1c1ccc(-c2cccc(O)c2)cc1 ?
## Result y

## Task Per the assay record, what outcome was assigned to CC[C@@]1(O)C(=O)OCc2c1cc1n(c2=O)Cc2cc3c(CN(C)C)c(O)ccc3nc2-1 + NC1CC1c1ccc(-c2cccc(O)c2)cc1 ?
## Result y

## Task Which outcome was entered for the molecule COc1ccc([C@@H](O)c2cc(-c3ncnc4cc(N5CCOCC5)ccc34)c(F)cc2Cl)nn1 + NC1CC1c1ccc(-c2cccc(O)c2)cc1 in this test?
## Result n

## Task Which outcome was entered for the molecule CC1(C)CCC(CN2CCN(c3ccc(C(=O)NS(=O)(=O)c4ccc(NCC5CCOCC5)c([N+](=O)[O-])c4)c(Oc4cnc5[nH]ccc5c4)c3)CC2)=C(c2ccc(Cl)cc2)C1 + NC1CCC(NC2CC2c2ccccc2)CC1 in this test?
## Result n
